Target: Serotonin 5HT7 receptors (Homo sapiens (Human))
Experiment: Radiolabel Binding Studies for Serotonin 5HT7 receptors
Conditions: read-out: 5-HT7 % inhib @ 10 uM
Method: Radiolabel Binding Studies for Serotonin 5HT7 receptors, method 1: […] The 250-μl reactions are incubated at room temperature for 1.5 hours, then harvested by rapid filtration onto 0.3% polyethyleneimine-treated, 96-well filter mats using a 96-well Filtermate harvester. […] The filter mats are dried, then scintillant is added to the filters and the radioactivity retained on the filters is counted in a Microbeta scintillation counter. […]
# key: entry, value: inhibition at 10 µM

COMPOUND	DISPLAY_UNIT	inhibition at 10 µM
N#Cc1ccnc(N2CCN(CCC3CC4(CCCC4)C(=O)O3)CC2)c1 (stereo not drawn) [Entry 230012]	%	76.6
CCC1(CC)CC(CCN2CCc3ccc(Cl)cc3C2)OC1=O (stereo not drawn) [Entry 230070]	%	100
O=C1OC(CCN2CCN(c3ccc4[nH]c(=O)[nH]c4c3)CC2)CC12CCCCC2 (stereo not drawn) [Entry 160150]	%	76.9
COc1ccccc1N1CCN(CCC2CC3(CCC3)C(=O)O2)CC1 (stereo not drawn) [Entry 230015]	%	83.4
O=C1OC(CCN2CCN(c3ccc4[nH]c(=O)[nH]c4c3)CC2)CC12CCCC2 (stereo not drawn) [Entry 160151]	%	35.9
CCC1(CC)C[C@H](CCN2CCN(c3ccncc3)CC2)OC1=O [Entry 230083]	%	51
O=C1OC(CCN2CCN(c3ccc4[nH]ccc4c3)CC2)CC12CCCC2 (stereo not drawn) [Entry 160147]	%	9
COc1ccc(N2CCN(CC[C@H]3CC(C)(C)C(=O)O3)CC2)cc1 [Entry 230046]	%	53.5
CCC1(CC)CC(CCCN2CCN(c3ccccn3)CC2)OC1=O (stereo not drawn) [Entry 230063]	%	98.9
O=C1OC(CCN2CCN(c3ccc4[nH]c(=O)[nH]c4c3)CC2)CC12CCC2 (stereo not drawn) [Entry 160152]	%	59.5
O=C1OC(CCN2CCN(c3ccc4[nH]ccc4c3)CC2)CC12CCCCC2 (stereo not drawn) [Entry 160146]	%	97.9
CCC1(CC)CC(CCCN2CCN(c3ccccc3)CC2)OC1=O (stereo not drawn) [Entry 230057]	%	98.5
O=C1OC(CCN2CCN(c3ccccc3O)CC2)CC12CCCC2 (stereo not drawn) [Entry 230014]	%	91.5
Nc1cc(N2CCN(CCC3CC4(CCCCC4)C(=O)O3)CC2)ccc1[N+](=O)[O-] (stereo not drawn) [Entry 160149]	%	84.7
O=C1OC(CCN2CCN(c3ccnc(Cl)c3)CC2)CC12CCCCC2 (stereo not drawn) [Entry 160153]	%	58.2
O=C1OC(CCN2CCN(c3ccccc3O)CC2)CC12CCC2 (stereo not drawn) [Entry 230016]	%	84.7
CCC1(CC)CC(CCN2CCc3ccc(F)cc3C2)OC1=O (stereo not drawn) [Entry 230071]	%	99.3
CCC1(CC)CC(CCCN2CCN(c3ccc(C#N)cc3)CC2)OC1=O (stereo not drawn) [Entry 230058]	%	78.6

###

Target: Serotonin 5HT7 receptors (Homo sapiens (Human), UniProt P34969)
Test: Radiolabel Binding Studies for Serotonin 5HT7 receptors
Conditions: read-out: 5-HT7 % inhib @ 10 uM
Entry flag: yes if inhibition at 10 µM reaches 90%; no if it does not.

COMPOUND	TARGET_OF_ASSAY	CATEGORY
CCC1(CC)CC(CCCN2CCN(c3ccc(C)cc3)CC2)OC1=O (centres unmarked)	Serotonin 5HT7 receptors (Homo sapiens (Human), UniProt P34969)	yes
O=C1OC(CCN2CCN(c3ccnc(Cl)c3)CC2)CC12CCCC2 (centres unmarked)	Serotonin 5HT7 receptors (Homo sapiens (Human), UniProt P34969)	no
O=C1OC(CCN2CCN(c3ccc4[nH]ccc4c3)CC2)CC12CCC2 (centres unmarked)	Serotonin 5HT7 receptors (Homo sapiens (Human), UniProt P34969)	yes

###

Target: Serotonin 5HT7 receptors (Homo sapiens (Human))
Assay: Radiolabel Binding Studies for Serotonin 5HT7 receptors
Details: read-out: 5-HT7 % inhib @ 10 uM

COMPOUND	TARGET_OF_ASSAY	inhibition at 10 µM
CS(=O)(=O)Nc1ccc(N2CCN(CCC3CC4(CCCC4)C(=O)O3)CC2)cc1 (stereo not drawn) [Entry 230008]	Serotonin 5HT7 receptors (Homo sapiens (Human))	33.2%
CCC1(CC)CC(CCCN2CCN(c3ccccc3C(C)C)CC2)OC1=O (stereo not drawn) [Entry 230062]	Serotonin 5HT7 receptors (Homo sapiens (Human))	98.6%
COc1ccc(N2CCN(CC[C@@H]3CC(C)(C)C(=O)O3)CC2)cc1 [Entry 230039]	Serotonin 5HT7 receptors (Homo sapiens (Human))	42.6%
CCC1(CC)CC(CCN2CCN(c3ccc4nc(C(F)(F)F)[nH]c4c3)CC2)OC1=O (stereo not drawn) [Entry 230068]	Serotonin 5HT7 receptors (Homo sapiens (Human))	44%
CCC1(CC)CC(CCCN2CCN(c3ccc(OC)cc3)CC2)OC1=O (stereo not drawn) [Entry 230060]	Serotonin 5HT7 receptors (Homo sapiens (Human))	43.6%
O=C1OC(CCN2CCN(c3cc(Cl)ccn3)CC2)CC12CCCC2 (stereo not drawn) [Entry 230010]	Serotonin 5HT7 receptors (Homo sapiens (Human))	33.5%

###

Molecular target: Serotonin 5HT7 receptors (Homo sapiens (Human), UniProt P34969)
Experiment: Radiolabel Binding Studies for Serotonin 5HT7 receptors
Details: membranes of cells expressing recombinant 5HT7 receptors

COMPOUND	TARGET_OF_ASSAY	IC50 (nM)
CCC1(CC)CC(CCCN2CCN(c3ccc(C)cc3)CC2)OC1=O (stereo not shown) [Entry 230061]	Serotonin 5HT7 receptors (Homo sapiens (Human), UniProt P34969)	168
CCC1(CC)CC(CCN2CCc3ccc(Cl)cc3C2)OC1=O (stereo not shown) [Entry 230070]	Serotonin 5HT7 receptors (Homo sapiens (Human), UniProt P34969)	7.5
CCC1(CC)C[C@H](CCN2CCN(c3ccncc3)CC2)OC1=O [Entry 230083]	Serotonin 5HT7 receptors (Homo sapiens (Human), UniProt P34969)	5820
CCC1(CC)CC(CCCN2CCN(c3ccc(C#N)cc3)CC2)OC1=O (stereo not shown) [Entry 230058]	Serotonin 5HT7 receptors (Homo sapiens (Human), UniProt P34969)	965
O=C1OC(CCN2CCN(c3ccc4[nH]c(=O)[nH]c4c3)CC2)CC12CCC2 (stereo not shown) [Entry 160152]	Serotonin 5HT7 receptors (Homo sapiens (Human), UniProt P34969)	2250
O=C1OC(CCN2CCN(c3ccnc(Cl)c3)CC2)CC12CCCCC2 (stereo not shown) [Entry 160153]	Serotonin 5HT7 receptors (Homo sapiens (Human), UniProt P34969)	4360
O=C1OC(CCN2CCN(c3ccc4[nH]c(=O)[nH]c4c3)CC2)CC12CCCCC2 (stereo not shown) [Entry 160150]	Serotonin 5HT7 receptors (Homo sapiens (Human), UniProt P34969)	1230

###

Biological target: Serotonin 5HT7 receptors (Homo sapiens (Human), UniProt P34969)
Assay: Radiolabel Binding Studies for Serotonin 5HT7 receptors
Details: membranes of cells expressing recombinant 5HT7 receptors
pIC50: −log10 of the molar value.

COMPOUND	TARGET_OF_ASSAY	pIC50
O=C1OC(CCN2CCN(c3ccccc3O)CC2)CC12CCCC2 (centres unmarked) [Entry 230014]	Serotonin 5HT7 receptors (Homo sapiens (Human), UniProt P34969)	7.11
COc1ccccc1N1CCN(CCC2CC3(CCCC3)C(=O)O2)CC1 (centres unmarked) [Entry 230013]	Serotonin 5HT7 receptors (Homo sapiens (Human), UniProt P34969)	6.84
CCC1(CC)CC(CCN2CCc3ccc(F)cc3C2)OC1=O (centres unmarked) [Entry 230071]	Serotonin 5HT7 receptors (Homo sapiens (Human), UniProt P34969)	8.00
CCC1(CC)CC(CCCN2CCN(c3ccccc3C(C)C)CC2)OC1=O (centres unmarked) [Entry 230062]	Serotonin 5HT7 receptors (Homo sapiens (Human), UniProt P34969)	7.92
O=C1OC(CCN2CCN(c3ccc(Cl)cn3)CC2)CC12CCCCC2 (centres unmarked) [Entry 160145]	Serotonin 5HT7 receptors (Homo sapiens (Human), UniProt P34969)	7.48
COc1ccc(N2CCN(CC[C@@H]3CC(C)(C)C(=O)O3)CC2)cc1 [Entry 230039]	Serotonin 5HT7 receptors (Homo sapiens (Human), UniProt P34969)	5.00
N#Cc1ccnc(N2CCN(CCC3CC4(CCCC4)C(=O)O3)CC2)c1 (centres unmarked) [Entry 230012]	Serotonin 5HT7 receptors (Homo sapiens (Human), UniProt P34969)	6.36
O=C1OC(CCN2CCN(c3ccc4[nH]ccc4c3)CC2)CC12CCCCC2 (centres unmarked) [Entry 160146]	Serotonin 5HT7 receptors (Homo sapiens (Human), UniProt P34969)	7.19
O=C1OC(CCN2CCN(c3ccccc3O)CC2)CC12CCC2 (centres unmarked) [Entry 230016]	Serotonin 5HT7 receptors (Homo sapiens (Human), UniProt P34969)	6.52
CCC1(CC)CC(CCCN2CCN(c3ccc(O)cc3)CC2)OC1=O (centres unmarked) [Entry 230059]	Serotonin 5HT7 receptors (Homo sapiens (Human), UniProt P34969)	6.45
O=C1OC(CCN2CCN(c3ccc4[nH]ccc4c3)CC2)CC12CCC2 (centres unmarked) [Entry 160148]	Serotonin 5HT7 receptors (Homo sapiens (Human), UniProt P34969)	7.06
CCC1(CC)CC(CCCN2CCN(c3ccc(OC)cc3)CC2)OC1=O (centres unmarked) [Entry 230060]	Serotonin 5HT7 receptors (Homo sapiens (Human), UniProt P34969)	5.00
CCC1(CC)CC(CCCN2CCN(c3ccccc3)CC2)OC1=O (centres unmarked) [Entry 230057]	Serotonin 5HT7 receptors (Homo sapiens (Human), UniProt P34969)	7.26
CCC1(CC)CC(CCCN2CCN(c3ccccn3)CC2)OC1=O (centres unmarked) [Entry 230063]	Serotonin 5HT7 receptors (Homo sapiens (Human), UniProt P34969)	7.03
